Biological target: T1, canine PD-L1 (Acro Biosystems, Cat #PDL-C52H4) (canine, UniProt E2RKZ5 19-236)
T1 construct: not shown: The vendor's tag, probably a polyhistidine tag
T1 sequence: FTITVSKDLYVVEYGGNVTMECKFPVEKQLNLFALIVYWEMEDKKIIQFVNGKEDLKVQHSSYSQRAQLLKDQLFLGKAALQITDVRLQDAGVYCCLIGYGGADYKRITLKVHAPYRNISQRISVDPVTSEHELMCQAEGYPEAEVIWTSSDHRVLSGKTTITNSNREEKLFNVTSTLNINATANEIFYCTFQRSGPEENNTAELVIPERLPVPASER
Assay: ELISA
value_type: binding result

56H3 (antibody, human IgG1, V domains shown) VH: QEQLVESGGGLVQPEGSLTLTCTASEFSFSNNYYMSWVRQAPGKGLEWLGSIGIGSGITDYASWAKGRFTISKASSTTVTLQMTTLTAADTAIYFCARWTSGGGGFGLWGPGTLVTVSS VL: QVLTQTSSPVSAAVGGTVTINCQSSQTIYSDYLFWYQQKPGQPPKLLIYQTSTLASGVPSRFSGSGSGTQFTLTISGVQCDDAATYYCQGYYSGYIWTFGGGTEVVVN ... no binding
57B10 (antibody, human IgG1, V domains shown) VH: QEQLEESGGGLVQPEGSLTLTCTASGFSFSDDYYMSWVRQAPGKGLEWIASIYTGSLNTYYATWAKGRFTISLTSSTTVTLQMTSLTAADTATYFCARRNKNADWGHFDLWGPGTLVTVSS VL: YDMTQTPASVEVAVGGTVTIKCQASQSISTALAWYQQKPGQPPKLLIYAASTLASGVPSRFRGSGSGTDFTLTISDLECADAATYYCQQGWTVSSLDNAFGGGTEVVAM ... no binding
74A9 (antibody, human IgG1, V domains shown) VH: QSVEESGGRLVTPGTPLTLTCAVSGFSLSTYALGWVRQAPGKGLEWIGSISIGGATYYASWAKGRFTISKTSTTVDLKIASPTTEDTATYFCARNVDSIYLDAFHTWGPGTLVTVSL VL: DIVMTQTPASVEAAVGGTVTIKCQASQNIYNNLAWYQQKPGQPPKLLIYRASTLASGVPSRFKGSGSGTEYTLTISDLECDDAATYYCQTYYLTTTTNAFGGGTEVVVK ... no binding
